Test system: E. coli TESEC Mtb Alr
MEASUREMENT_PROTOCOL: growth (OD600 after 10 h); higher = more growth (less inhibition)
APPLIED_CONDITIONS: arabinose 100 nM; compound 0.1 mM; raw OD600 reference: median of DMSO wells 0.413, cell-free background 0.052
Structures can show the parent of a compound that is named as a salt.
Each record here notes measured growth.

{"COMPOUND": "CC(C[N+](C)(C)C)OC(N)=O (stereo not given) [Bethanechol chloride]", "ASSAYED_TARGET": "E. coli TESEC Mtb Alr", "growth": 0.438}
{"COMPOUND": "COc1cc(C(=O)NS(=O)(=O)c2ccccc2C)ccc1Cc1cn(C)c2ccc(NC(=O)OC3CCCC3)cc12 [Zafirlukast]", "ASSAYED_TARGET": "E. coli TESEC Mtb Alr", "growth": 0.257}
{"COMPOUND": "NCCCC[C@H](N[C@@H](CCc1ccccc1)C(=O)O)C(=O)N1CCC[C@H]1C(=O)O [Lisinopril]", "ASSAYED_TARGET": "E. coli TESEC Mtb Alr", "growth": 0.41}
{"COMPOUND": "CC#C[C@]1(O)CC[C@H]2[C@@H]3CCC4=CC(=O)CCC4=C3[C@@H](c3ccc(N(C)C)cc3)C[C@@]21C [Mifepristone]", "ASSAYED_TARGET": "E. coli TESEC Mtb Alr", "growth": 0.411}
{"COMPOUND": "CC(=O)OCC(=O)[C@@]12OC3(CCCC3)O[C@@H]1C[C@H]1[C@@H]3CCC4=CC(=O)C=C[C@]4(C)[C@@]3(F)[C@@H](O)C[C@@]12C [Amcinonide]", "ASSAYED_TARGET": "E. coli TESEC Mtb Alr", "growth": 0.409}
{"COMPOUND": "CCC1(c2ccccc2)C(=O)NCNC1=O [Primidone]", "ASSAYED_TARGET": "E. coli TESEC Mtb Alr", "growth": 0.408}
{"COMPOUND": "NC(=O)N1c2ccccc2CC(=O)c2ccccc21 [Oxcarbazepine]", "ASSAYED_TARGET": "E. coli TESEC Mtb Alr", "growth": 0.403}
{"COMPOUND": "O=C1CN2Cc3c(ccc(Cl)c3Cl)N=C2N1 [Anagrelide]", "ASSAYED_TARGET": "E. coli TESEC Mtb Alr", "growth": 0.413}
{"COMPOUND": "Nc1ncn(C2OC(CO)C(O)C2O)c(=O)n1 (stereo not given) [Azacytidine-5]", "ASSAYED_TARGET": "E. coli TESEC Mtb Alr", "growth": 0.385}
{"COMPOUND": "C#CCN(C)Cc1ccccc1 [Pargyline hydrochloride]", "ASSAYED_TARGET": "E. coli TESEC Mtb Alr", "growth": 0.412}
{"COMPOUND": "CCN(CC)CCOCCOC(=O)C1(c2ccccc2)CCCC1 [Carbetapentane citrate]", "ASSAYED_TARGET": "E. coli TESEC Mtb Alr", "growth": 0.41}
{"COMPOUND": "CO[C@@]1(NC(=O)Cc2cccs2)C(=O)N2C(C(=O)O)=C(COC(N)=O)CS[C@@H]21 [Cefoxitin sodium salt]", "ASSAYED_TARGET": "E. coli TESEC Mtb Alr", "growth": 0.0456}
{"COMPOUND": "CCN(CC)CCNC(=O)c1cc(Br)c(N)cc1OC [Bromopride]", "ASSAYED_TARGET": "E. coli TESEC Mtb Alr", "growth": 0.407}
{"COMPOUND": "CCOC(=O)n1ccn(C)c1=S [Carbimazole]", "ASSAYED_TARGET": "E. coli TESEC Mtb Alr", "growth": 0.424}
{"COMPOUND": "CC[C@]12CCCN3CCc4c(n(c5ccccc45)C(=O)C1)[C@@H]32 [Eburnamonine (-)]", "ASSAYED_TARGET": "E. coli TESEC Mtb Alr", "growth": 0.393}
{"COMPOUND": "Cc1ccc(Cl)c(Nc2ccccc2C(=O)O)c1Cl [Meclofenamic acid sodium salt monohydrate]", "ASSAYED_TARGET": "E. coli TESEC Mtb Alr", "growth": 0.0708}
{"COMPOUND": "CC(=O)S[C@@H]1CC2=CC(=O)CC[C@]2(C)[C@H]2CC[C@@]3(C)[C@@H](CC[C@@]34CCC(=O)O4)[C@H]12 [Spironolactone]", "ASSAYED_TARGET": "E. coli TESEC Mtb Alr", "growth": 0.389}
{"COMPOUND": "CCC(=O)O[C@]1(C(=O)SCF)[C@H](C)C[C@H]2[C@@H]3C[C@H](F)C4=CC(=O)C=C[C@]4(C)[C@@]3(F)[C@@H](O)C[C@@]21C [Fluticasone propionate]", "ASSAYED_TARGET": "E. coli TESEC Mtb Alr", "growth": 0.453}
{"COMPOUND": "CC(=O)Nc1c(I)c(NC(C)=O)c(I)c(C(=O)O)c1I [Diatrizoic acid dihydrate]", "ASSAYED_TARGET": "E. coli TESEC Mtb Alr", "growth": 0.424}
{"COMPOUND": "CCN(CCCCOC(=O)c1ccc(OC)c(OC)c1)C(C)Cc1ccc(OC)cc1 (stereo not given) [Mebeverine hydrochloride]", "ASSAYED_TARGET": "E. coli TESEC Mtb Alr", "growth": 0.406}

---

// reported growth for each item listed
System: E. coli TESEC Mtb Alr
MEASUREMENT_PROTOCOL: growth (OD600 after 10 h); higher = more growth (less inhibition)
APPLIED_CONDITIONS: arabinose 10000000 nM; compound 0.1 mM; raw OD600 reference: median of DMSO wells […], cell-free background 0.052
VALUE_TYPE: growth

{"COMPOUND": "Cc1cc2c(s1)Nc1ccccc1N=C2N1CCN(C)CC1", "QUANTITATIVE_READOUT": 0.319}
{"COMPOUND": "CCOC(=O)C1=C[C@]2(CC)CCCN3CCc4c(n1c1ccccc41)[C@@H]32", "QUANTITATIVE_READOUT": 0.337}
{"COMPOUND": "CCCc1cc(C(N)=S)ccn1 [Prothionamide]", "QUANTITATIVE_READOUT": 0.36}
{"COMPOUND": "O=C(NCC1CCCCN1)c1cc(OCC(F)(F)F)ccc1OCC(F)(F)F (stereo unspecified) [Flecainide acetate]", "QUANTITATIVE_READOUT": 0.356}
{"COMPOUND": "CCN(CC)C(=O)/C(C#N)=C/c1cc(O)c(O)c([N+](=O)[O-])c1", "QUANTITATIVE_READOUT": 0.0695}
{"COMPOUND": "Clc1ccc(C(Cn2ccnc2)OCc2ccsc2Cl)c(Cl)c1 (stereo unspecified)", "QUANTITATIVE_READOUT": 0.051}

---

Test system: E. coli TESEC Mtb Alr
MEASUREMENT_PROTOCOL: growth (OD600 after 10 h); higher = more growth (less inhibition)
APPLIED_CONDITIONS: arabinose 1000 nM; compound 0.1 mM; raw OD600 reference: median of DMSO wells 0.294, cell-free background 0.041
Where a name gives a salt, the structure may show the parent alone.
VALUE_TYPE: growth

{"MOLECULE": "CC(C)Cn1cnc2c(N)nc3ccccc3c21 [Imiquimod]", "QUANTITATIVE_READOUT": 0.282}
{"MOLECULE": "O=C1CC2(CCCC2)CC(=O)N1CCCCN1CCN(c2ncccn2)CC1 [Buspirone hydrochloride]", "QUANTITATIVE_READOUT": 0.274}
{"MOLECULE": "Clc1ccc(COC(Cn2ccnc2)c2ccc(Cl)cc2Cl)cc1 (centres undefined) [Econazole nitrate]", "QUANTITATIVE_READOUT": 0.048}
{"MOLECULE": "CC[C@]12CCCN3CCc4c(n(c5ccccc45)C(=O)C1)[C@@H]32 [Eburnamonine (-)]", "QUANTITATIVE_READOUT": 0.238}

---

Tested on: E. coli TESEC Mtb Alr
MEASUREMENT_PROTOCOL: growth (OD600 after 10 h); higher = more growth (less inhibition)
APPLIED_CONDITIONS: arabinose 10000000 nM; compound 0.1 mM; raw OD600 reference: median of DMSO wells 0.146, cell-free background 0.041
Where a name gives a salt, the structure may show the parent alone.
Below, each of the compounds is paired with its reported growth value.

{"COMPOUND": "Nc1ccn([C@@H]2CS[C@H](CO)O2)c(=O)n1", "growth": 0.144}
{"COMPOUND": "Brc1c(NC2=NCCN2)ccc2nccnc12 [Brimondine L-Tartrate]", "growth": 0.152}
{"COMPOUND": "COc1cccc(N(C)C(=S)Oc2ccc3c(c2)CCCC3)n1 [Liranaftate]", "growth": 0.149}
{"COMPOUND": "C[N+](C)(CCOc1ccccc1)Cc1ccccc1.O=C([O-])c1cc2ccccc2cc1O [Bephenium hydroxynaphthoate]", "growth": 0.134}
{"COMPOUND": "CCC(C)(C)c1ccc(CC(C)CN2C[C@@H](C)O[C@@H](C)C2)cc1 (some centres not stated) [Amorolfine hydrochloride]", "growth": 0.0502}
{"COMPOUND": "c1ccc(C2CN3CCSC3=N2)cc1 (configuration not stated) [Tetramisole hydrochloride]", "growth": 0.16}
{"COMPOUND": "C=C1c2cccc(O)c2C(O)=C2C(=O)[C@]3(O)C(O)=C(C(N)=O)C(=O)[C@@H](N(C)C)[C@@H]3[C@@H](O)[C@H]12 [Methacycline hydrochloride]", "growth": 0.0481}
